Measured values drawn from patent US20210347821A1 for this set.

Molecular target: T1, Protein Interacting with C Kinase-1 (PICK1), purified recombinant (UniProt Q9EP80 1-416)
T1 construct: also called purified PICK1
T1 sequence (Q9EP80 whole entry): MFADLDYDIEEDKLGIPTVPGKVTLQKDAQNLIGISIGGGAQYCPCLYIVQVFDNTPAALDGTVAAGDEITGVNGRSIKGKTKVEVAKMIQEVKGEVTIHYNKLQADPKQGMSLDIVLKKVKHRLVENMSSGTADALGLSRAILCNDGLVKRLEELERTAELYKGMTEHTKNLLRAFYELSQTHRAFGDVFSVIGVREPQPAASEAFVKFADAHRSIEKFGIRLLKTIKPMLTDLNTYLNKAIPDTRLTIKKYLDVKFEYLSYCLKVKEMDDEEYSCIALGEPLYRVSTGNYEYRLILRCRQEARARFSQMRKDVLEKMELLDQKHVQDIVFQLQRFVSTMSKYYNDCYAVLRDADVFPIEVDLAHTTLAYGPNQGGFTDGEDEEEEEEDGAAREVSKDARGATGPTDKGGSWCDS
Assay: fluorescence polarization competition, tracer 5-FAM-TAT-C5
Where no end group is shown, it is not given here. NPEG4 = 4-unit NPEG linker joining two HWLKV peptides through their N-termini, carries the CPP on its nitrogen
TEST READOUT: pKi
Notebook: values listed as pKi are -log10 of the concentration (mol/L).

- BINDER: "MAP-P4-(C5)2 (not fully specified, also called MAP-NPEG4-(HWLKV)2; MAP-peptide) peptide 1: KLALKLALKALKAALKLA peptide 2: HWLKV"
  OBSERVED VALUE: 8.29

Please turn your attention to the following entry.
// query Can you look up the measured pKi of TAT11-PEG4-(DATC5)2 (not fully specified (C-terminus), Branched compound: two HWLKV peptides joined through their N-termini by a 4-unit NPEG linker that carries the CPP; also called TAT-P4-(C5)2) peptide 1: YGRKKRRQRRR peptide 2: NPEG4-HWLKV for me?
// result 8.40
